From: patent US20210380703A1

TESTED_TARGET: T1, biotinylated goat anti-human kappa light chain
T1 construct: Positive control of the ELISA
ASSAY: ELISA, positive control; also: test concentration or dose not given here
MEASURED_METRIC: optical density (OD)
The reply should be a number in OD, with the unit left off.

Below, 3 binders whose answers are already recorded.
369_A06 (antibody, V domains shown, VH and VL only) VH: EVQLLESGGGLVQPGGSLRLSCAASGFTFSDYGMNWVRQAPGKGLEWVSNINYNGGYTGYADSVKGRFTISRDNSKNTLYLQMNSLRAEDTAVYYCARSATWHDTHLDYWGQGTLVTVSS VL: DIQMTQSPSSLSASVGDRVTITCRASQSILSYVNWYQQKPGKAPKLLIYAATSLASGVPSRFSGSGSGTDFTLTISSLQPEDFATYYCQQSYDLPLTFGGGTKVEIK : 3.32
374_G02 (antibody, V domains shown, VH and VL only) VH: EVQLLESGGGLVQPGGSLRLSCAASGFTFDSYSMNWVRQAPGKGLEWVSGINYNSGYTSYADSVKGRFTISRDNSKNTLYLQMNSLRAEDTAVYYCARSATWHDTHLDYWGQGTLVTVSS VL: DIQMTQSPSSLSASVGDRVTITCRASQSILTYLNWYQQKPGKAPKLLIYAASSLQSGVPSRFSGSGSGTDFTLTISSLQPEDFATYYCQQSYDTPLTFGGGTKVEIK : 3.17
374_A08 (antibody, V domains shown, VH and VL only) VH: EVQLLESGGGLVQPGGSLRLSCAASGFTFDSYSMNWVRQAPGKGLEWVSNINYNSGYTSYADSVKGRFTISRDNSKNTLYLQMNSLRAEDTAVYYCARSATWHDTHLDYWGQGTLVTVSS VL: DIQMTQSPSSLSASVGDRVTITCRASQSIVTYLNWYQQKPGKAPKLLIYAATSLASGVPSRFSGSGSGTDFTLTISSLQPEDFATYYCQQSYDLPLTFGGGTKVEIK : 2.94

Q: # lookup: optical density of 374_D11 (antibody, V domains shown, VH and VL only) VH: EVQLLESGGGLVQPGGSLRLSCAASGFTFDSYGMNWVRQAPGKGLEWVSNINYNSGYTGYADSVKGRFTISRDNSKNTLYLQMNSLRAEDTAVYYCARSATWHDTHLDYWGQGTLVTVSS VL: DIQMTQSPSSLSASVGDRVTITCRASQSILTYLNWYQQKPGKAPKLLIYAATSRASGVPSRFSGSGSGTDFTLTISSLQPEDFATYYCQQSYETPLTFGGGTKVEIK
Result: 2.9

Q: # get_value(readout='optical density', item= 369_H11 (antibody, V domains shown, VH and VL only) VH: EVQLLESGGGLVQPGGSLRLSCAASGFTFSDYGMNWVRQAPGKGLEWVSSINYNGGYTGYADSVKGRFTISRDNSKNTLYLQMNSLRAEDTAVYYCARSATWHDTHLDYWGQGTLVTVSS VL: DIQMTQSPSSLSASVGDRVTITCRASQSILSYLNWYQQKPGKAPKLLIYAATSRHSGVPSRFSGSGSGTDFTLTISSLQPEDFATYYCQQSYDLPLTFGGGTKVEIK )
Result: 2.21

Q: Item under review: 366_C03 (antibody, V domains shown, VH and VL only) VH: EVQLLESGGGLVQPGGSLRLSCAASGFTFDSYGMNWVRQAPGKGLEWVSNINYNGGYTGYADSVKGRFTISRDNSKNTLYLQMNSLRAEDTAVYYCARSATWHDTHLDYWGQGTLVTVSS VL: DIQMTQSPSSLSASVGDRVTITCRASQSILSYLNWYQQKPGKAPKLVIYAATSRASGVPSRFSGSGSGTDFTLTISSLQPEDFATYYCQQSYSNPLTFGGGTKVEIK . Reported optical density?
Result: 3.55

Q: Record request: optical density value, item 365_A02 (antibody, V domains shown, VH and VL only) VH: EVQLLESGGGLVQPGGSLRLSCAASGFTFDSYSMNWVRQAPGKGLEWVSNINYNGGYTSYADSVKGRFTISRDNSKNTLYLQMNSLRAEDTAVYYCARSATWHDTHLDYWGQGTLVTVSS VL: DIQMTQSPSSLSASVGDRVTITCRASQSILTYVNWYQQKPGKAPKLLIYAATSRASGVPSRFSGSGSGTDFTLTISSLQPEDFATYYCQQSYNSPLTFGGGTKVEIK
Result: 3.49

Q: Request the reported optical density associated with 365_D06 (antibody, V domains shown, VH and VL only) VH: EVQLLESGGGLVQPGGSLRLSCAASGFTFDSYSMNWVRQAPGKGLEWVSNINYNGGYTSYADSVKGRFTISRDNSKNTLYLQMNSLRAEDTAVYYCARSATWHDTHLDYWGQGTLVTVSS VL: DIQMTQSPSSLSASVGDRVTITCRASQSILTYVNWYQQKPGKAPKLLIYAATSRASGVPSRFSGSGSGTDFTLTISSLQPEDFATYYCQQSYSLPLTFGGGTKVEIK
Result: 3.42

Q: // lookup optical density for 370_A10 (antibody, V domains shown, VH and VL only) VH: EVQLLESGGGLVQPGGSLRLSCAASGFTFSDYSMNWVRQAPGKGLEWVSSINYNSGYKGYADSVKGRFTISRDNSKNTLYLQMNSLRAEDTAVYYCARSATWHDTHLDYWGQGTLVTVSS VL: DIQMTQSPSSLSASVGDRVTITCRASQSILSYVNWYQQKPGKAPKLLIYAATSLASGVPSRFSGSGSGTDFTLTISSLQPEDFATYYCQQSYDTPLTFGGGTKVEIK
Result: 3.47

Q: optical density for 376_E09 (antibody, V domains shown, VH and VL only) VH: EVQLLESGGGLVQPGGSLRLSCAASGFTFDSYSMNWVRQAPGKGLEWVSGINYNSGYKSYADSVKGRFTISRDNSKNTLYLQMNSLRAEDTAVYYCARSATWHDTHLDYWGQGTLVTVSS VL: DIQMTQSPSSLSASVGDRVTITCRASQSILTYLNWYQQKPGKAPKLLIYAATSRHSGVPSRFSGSGSGTDFTLTISSLQPEDFATYYCQQSYDTPLTFGGGTKVEIK ?
Result: 3.48
